System: SLVL (B-Cell Non-Hodgkin's Lymphoma)
measurement.protocol: Bliss excess, mean over the matrix (fraction); higher = more synergy
Measured Bliss excess, listed per entry for reference.

# Bliss excess lookup, item COc1cc2c(cc1OCCCCCOc1cc3c(cc1OC)C(=O)N1C=C(C)C[C@H]1C=N3)N=C[C@@H]1CC(C)=CN1C2=O [SG3199] + O=C(c1cc(Cc2n[nH]c(=O)c3ccccc23)ccc1F)N1CCN(C(=O)C2CC2)CC1 [Olaparib] (first compound max 0.001 µM, 7x7, partner max 10 µM)
-0.0314

# Bliss excess lookup, item COc1cccc(OCCCN)c1-c1cc(Nc2cnc(C#N)cn2)n[nH]1 [Prexasertib] + Cc1cc2ncnn2cc1Nc1ncc2c(n1)n(C1CCOCC1)c(=O)n2C [AZD7648] (first compound max 1 µM, 7x7, partner max 10 µM)
0.0204

# Bliss excess lookup, item CN(CCO)CC[C@H](CSc1ccccc1)Nc1ccc(S(=O)(=O)NC(=O)c2ccc(N3CCC([C@@H](O)c4ccccc4-c4ccc(Cl)cc4)CC3)cc2)cc1S(=O)(=O)C(F)(F)F [AZD4320] + C1CN(CCC1(C(=O)N[C@@H](CCO)C2=CC=C(C=C2)Cl)N)C3=NC=NC4=C3C=CN4 [Capivasertib] (first compound max 1 µM, 7x7, partner max 3 µM)
0.0563

* * *

Tested on: P31-FUJ (Acute Myeloid Leukemia)
measurement.protocol: combination Emax (second highest fraction inhibited in the dose matrix, 72 h); higher = more inhibition; extreme values may be limits of the assay
recorded.metric: combination Emax
Answer with the value's number alone.

CS(=O)(=O)CCNCc1ccc(-c2ccc3ncnc(Nc4ccc(OCc5cccc(F)c5)c(Cl)c4)c3c2)o1 [Lapatinib] + C[C@@H](Oc1cc(-c2cnn(C3CCNCC3)c2)cnc1N)c1c(Cl)ccc(F)c1Cl [Crizotinib] (first compound max 10 µM, 7x7, partner max 10 µM) :: 0.957
CC1(C)CCC(CN2CCN(c3ccc(C(=O)NS(=O)(=O)c4ccc(NCC5CCOCC5)c([N+](=O)[O-])c4)c(Oc4cnc5[nH]ccc5c4)c3)CC2)=C(c2ccc(Cl)cc2)C1 [Venetoclax] + C[C@@H]1COCCN1C2=NC(=NC(=C2)C3(CC3)[S@](=N)(=O)C)C4=C5C=CNC5=NC=C4 [AZD6738] (first compound max 1 µM, 7x7, partner max 10 µM) :: 0.968
CC1(C)CCC(CN2CCN(c3ccc(C(=O)NS(=O)(=O)c4ccc(NCC5CCOCC5)c([N+](=O)[O-])c4)c(Oc4cnc5[nH]ccc5c4)c3)CC2)=C(c2ccc(Cl)cc2)C1 [Venetoclax] + CCN(CCO)CCCOc1ccc2c(Nc3cc(CC(=O)Nc4cccc(F)c4)[nH]n3)ncnc2c1 [AZD2811] (first compound max 1 µM, 7x7, partner max 1 µM) :: 0.932
C[C@@H]1COCCN1c1cc(C2([S@](C)(=N)=O)CC2)nc(-c2ccnc3[nH]ccc23)n1 [AZD6738] + C1CC(C1)(C(=O)[O-])C(=O)[O-].N.N.[Pt+2] [Carboplatin] (first compound max 10 µM, 7x7, partner max 10 µM) :: 0.922
COc1nnc2ccc(N3CCC(c4ccc(OCCN5CCN(C)C(=O)[C@H]5C)cc4)CC3)nn12 [AZD5153] + Cn1cnc2c(F)c(Nc3ccc(Br)cc3Cl)c(C(=O)NOCCO)cc21 [Selumetinib] (first compound max 1 µM, 7x7, partner max 10 µM) :: 0.985

Here is the next item to consider.
# combination Emax lookup, item O=C(c1cc(Cc2n[nH]c(=O)c3ccccc23)ccc1F)N1CCN(C(=O)C2CC2)CC1 [Olaparib] + Cc1c2c(nn1C)CSCc1cc(n(C)n1)CSc1cc(c3ccccc3c1)OCCCc1c(C(=O)O)n(C)c3c-2c(Cl)ccc13 [AZD5991] (first compound max 10 µM, 7x7, partner max 1 µM)
0.964

* * *

Tested on: CS1 (Chondrosarcoma)
measurement.protocol: combination Emax (second highest fraction inhibited in the dose matrix, 72 h); higher = more inhibition; extreme values may be limits of the assay
Measured combination Emax, listed per entry for reference.
Answer with the value's number alone.

CN(CCO)CC[C@H](CSc1ccccc1)Nc1ccc(S(=O)(=O)NC(=O)c2ccc(N3CCC([C@@H](O)c4ccccc4-c4ccc(Cl)cc4)CC3)cc2)cc1S(=O)(=O)C(F)(F)F [AZD4320] + C[C@@H](Nc1cc(F)cc(F)c1)c1cc(C(=O)N(C)C)cc2c(=O)cc(N3CCOCC3)oc12 [AZD8186] (first compound max 1 µM, 7x7, partner max 3 µM) :: 0.839

Here is the next item to consider.
Give the reported combination Emax for COc1cc2ncnc(Nc3ccc(F)c(Cl)c3)c2cc1OCCCN1CCOCC1 [Gefitinib] + CC(C)n1c(=O)n(C)c2cnc3cc(F)c(-c4ccc(OCCCN5CCCCC5)nc4)cc3c21 [AZD1390] (first compound max 10 µM, 7x7, partner max 0.3 µM) (system: CS1 (Chondrosarcoma)).
0.201

* * *

Measured Bliss excess, listed per entry for reference.
Tested on: TC-YIK (Other Solid Carcinomas)
measurement.protocol: Bliss excess, mean over the matrix (fraction); higher = more synergy
Answer with the value's number alone.

Study these solved cases before continuing.
CC1(C)CCC(CN2CCN(c3ccc(C(=O)NS(=O)(=O)c4ccc(NCC5CCOCC5)c([N+](=O)[O-])c4)c(Oc4cnc5[nH]ccc5c4)c3)CC2)=C(c2ccc(Cl)cc2)C1 [Venetoclax] + CS(=O)(=O)CCNCc1ccc(-c2ccc3ncnc(Nc4ccc(OCc5cccc(F)c5)c(Cl)c4)c3c2)o1 [Lapatinib] (first compound max 1 µM, 7x7, partner max 10 µM) :: -0.0035
Cc1cc2ncnn2cc1Nc1ncc2c(n1)n(C1CCOCC1)c(=O)n2C [AZD7648] + COc1cc([C@@H]2c3cc4c(cc3[C@@H](O[C@@H]3O[C@@H]5CO[C@@H](C)O[C@H]5[C@H](O)[C@H]3O)[C@H]3COC(=O)[C@H]23)OCO4)cc(OC)c1O [Etoposide] (first compound max 10 µM, 7x7, partner max 10 µM) :: 0.0886

# Bliss excess lookup, item C[C@@H]1COCCN1c1cc(C2([S@](C)(=N)=O)CC2)nc(-c2ccnc3[nH]ccc23)n1 [AZD6738] + Nc1ccn([C@@H]2O[C@H](CO)[C@@H](O)C2(F)F)c(=O)n1 [Gemcitabine] (first compound max 10 µM, 7x7, partner max 0.3 µM)
-0.0046

* * *

Tested on: NCI-H1688 (Small Cell Lung Carcinoma)
measurement.protocol: Bliss excess, mean over the matrix (fraction); higher = more synergy
Measured Bliss excess, listed per entry for reference.
Answer with the value's number alone.

# Bliss excess lookup, item COc1cccc(OCCCN)c1-c1cc(Nc2cnc(C#N)cn2)n[nH]1 [Prexasertib] + CN(C)CCCOc1ccc(-c2ccc3ncc4c(c3c2)n(C2CCOCC2)c(=O)n4C)cn1 [AZD0156] (first compound max 1 µM, 7x7, partner max 1 µM)
0.016

# Bliss excess lookup, item C=CCn1c(=O)c2cnc(Nc3ccc(N4CCN(C)CC4)cc3)nc2n1-c1cccc(C(C)(C)O)n1 [AZD1775] + C1CN(CCC1(C(=O)N[C@@H](CCO)C2=CC=C(C=C2)Cl)N)C3=NC=NC4=C3C=CN4 [Capivasertib] (first compound max 3 µM, partner max 3 µM)
-0.0409

# Bliss excess lookup, item Cn1cnc2c(F)c(Nc3ccc(Br)cc3Cl)c(C(=O)NOCCO)cc21 [Selumetinib] + C=CCn1c(=O)c2cnc(Nc3ccc(N4CCN(C)CC4)cc3)nc2n1-c1cccc(C(C)(C)O)n1 [AZD1775] (first compound max 10 µM, partner max 1 µM)
-0.115

# Bliss excess lookup, item Cc1c2c(nn1C)CSCc1cc(n(C)n1)CSc1cc(c3ccccc3c1)OCCCc1c(C(=O)O)n(C)c3c-2c(Cl)ccc13 [AZD5991] + C=CCn1c(=O)c2cnc(Nc3ccc(N4CCN(C)CC4)cc3)nc2n1-c1cccc(C(C)(C)O)n1 [AZD1775] (first compound max 1 µM, partner max 1 µM)
-0.0502

* * *

Test system: DOK (Oral Cavity Carcinoma)
measurement.protocol: combination Emax (second highest fraction inhibited in the dose matrix, 72 h); higher = more inhibition; extreme values may be limits of the assay
Label true (1) when combination Emax >= 0.4; otherwise false (0).

Please review the entries below; each comes with its answer.
Cc1c2c(nn1C)CSCc1cc(n(C)n1)CSc1cc(c3ccccc3c1)OCCCc1c(C(=O)O)n(C)c3c-2c(Cl)ccc13 [AZD5991] + C[C@@H]1COCCN1C2=NC(=NC(=C2)C3(CC3)[S@](=N)(=O)C)C4=C5C=CNC5=NC=C4 [AZD6738] (first compound max 1 µM, 7x7, partner max 10 µM) :: true (1)
CC1(C)CCC(CN2CCN(c3ccc(C(=O)NS(=O)(=O)c4ccc(NCC5CCOCC5)c([N+](=O)[O-])c4)c(Oc4cnc5[nH]ccc5c4)c3)CC2)=C(c2ccc(Cl)cc2)C1 [Venetoclax] + CCN(CCO)CCCOc1ccc2c(Nc3cc(CC(=O)Nc4cccc(F)c4)[nH]n3)ncnc2c1 [AZD2811] (first compound max 1 µM, 7x7, partner max 1 µM) :: false (0)
CN(CCO)CC[C@H](CSc1ccccc1)Nc1ccc(S(=O)(=O)NC(=O)c2ccc(N3CCC([C@@H](O)c4ccccc4-c4ccc(Cl)cc4)CC3)cc2)cc1S(=O)(=O)C(F)(F)F [AZD4320] + CS(=O)(=O)CCNCc1ccc(-c2ccc3ncnc(Nc4ccc(OCc5cccc(F)c5)c(Cl)c4)c3c2)o1 [Lapatinib] (first compound max 1 µM, 7x7, partner max 10 µM) :: true (1)
C[C@@H](c1ccc2nccn2c1)n1nnc2ncc(-c3cnn(C)c3)nc21 [Savolitinib] + Cc1c2c(nn1C)CSCc1cc(n(C)n1)CSc1cc(c3ccccc3c1)OCCCc1c(C(=O)O)n(C)c3c-2c(Cl)ccc13 [AZD5991] (first compound max 1 µM, 7x7, partner max 1 µM) :: false (0)
C[C@@H](Oc1cc(-c2cnn(C3CCNCC3)c2)cnc1N)c1c(Cl)ccc(F)c1Cl [Crizotinib] + Cn1cnc2c(F)c(Nc3ccc(Br)cc3Cl)c(C(=O)NOCCO)cc21 [Selumetinib] (first compound max 10 µM, 7x7, partner max 10 µM) :: true (1)

Given the entry Cc1cc2ncnn2cc1Nc1ncc2c(n1)n(C1CCOCC1)c(=O)n2C [AZD7648] + CN(C)CCCOc1ccc(-c2ccc3ncc4c(c3c2)n(C2CCOCC2)c(=O)n4C)cn1 [AZD0156] (first compound max 10 µM, 7x7, partner max 1 µM) , answer whether its combination Emax meets or surpasses 0.4.
false (0)

Given the entry CS(=O)(=O)CCNCc1ccc(-c2ccc3ncnc(Nc4ccc(OCc5cccc(F)c5)c(Cl)c4)c3c2)o1 [Lapatinib] + C[C@@H](Oc1cc(-c2cnn(C3CCNCC3)c2)cnc1N)c1c(Cl)ccc(F)c1Cl [Crizotinib] (first compound max 10 µM, 7x7, partner max 10 µM) , answer whether its combination Emax meets or surpasses 0.4.
true (1)
